# Assay remarks: In vivo pharmacokinetic evaluation in male C57Bl/6 mice (LCMS/MS)
# Design: species or system mouse
# Conditions: male, C57Bl/6, mouse, plasma, ip; single i.p. 3 mg/kg, estimated; read-out: Plasma half-life (converted)

# Compound string, half-life / h
records = [
    ("Cc1ccccc1CSc1ccc(-c2ccccn2)nn1", 2.63),
]

====

# System: EAAT2
# Assay remarks: EAAT2 protein levels in PA-EAAT2 cells by Western blot
# Assay type: cell-based, human
# Conditions: compound 10 μM, 4 h incubation, PA-EAAT2 cells, relative to DMSO controls; na = not active
# label = yes if Fold increase for EAAT2, 4 h >= 2 fold else no

# Compound string, Class name
rows = [
    ("Oc1ccc(-c2ccccn2)nn1", "no"),
    ("Cc1ccc(CSc2ccc(-c3ccccn3)nn2)c(C)c1", "no"),
    ("Clc1ccc(Cl)c(CSc2ccc(-c3ccccn3)nn2)c1", "no"),
    ("Cc1ccc(Sc2ccc(-c3ccccn3)nn2)c(C)c1", "no"),
    ("Clc1cccc(Cl)c1CSc1ccc(-c2ccccn2)nn1", "no"),
    ("CCSc1ccc(-c2ccccn2)nn1", "no"),
    ("Fc1cccc(Cl)c1CCSc1ccc(-c2ccccn2)nn1", "no"),
    ("Fc1ccc(CSc2ccc(-c3ccccn3)nn2)cc1", "yes"),
    ("Cc1ccc(CSc2ccc(-c3ccccn3)nn2)cc1", "yes"),
]
